assay notes: forskolin-stimulated cAMP inhibition in U2OS – cell-based, TR-FRET, triplicate, counter-screen for MC4R biased antagonist project (AID 602193);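 also: signal is single emission at 671 nm which falls as cellular cAMP rises; 0% = forskolin-stimulated wells and 100% = buffer without forskolin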
applied conditions: parental U2OS, LANCE TR-FRET, at 6.5 µM
Screen size: about 1,600 compounds; about 410 (26%) were called active.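 The calls were made as follows: active = mean inhibition over triplicates above the low-control well mean plus 3 SD, set per campaign (cut at about 13% in these data); inactive = the rest.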 The list is a sample of the results.
I would appreciate it if you answered using one of these outcomes: active, inactive

Here's what some known entries look like.
CN(CC(=O)NCCc1ccccn1)S(=O)(=O)c1ccc(Cl)cc1 | inactive
CCOC(=O)C(C)n1cnc2sc(C)c(C)c2c1=O (configuration not stated) | inactive
O=C(Cn1nnc2ccccc2c1=O)Nc1cc(C(F)(F)F)ccc1N1CCOCC1 | inactive
CN(C)C(CNC(=O)CCCOc1ccccc1)c1ccco1 (configuration not stated) | inactive
CC(=O)N1CCN(S(=O)(=O)c2c(F)cc(F)c(Cl)c2F)CC1 | active
CCOC(=O)c1cc(C)nc(S(C)(=O)=O)c1C#N | inactive
CCOC(=O)CSc1nc(N2CCOCC2)c2c(c1C#N)CC(C(C)C)OC2 (configuration not stated) | inactive
COCCCNC(=O)/C(C#N)=C/c1c(N2CCCCCC2)nc2ccccn2c1=O | inactive
COc1ccc(-c2nc3n(c(=O)c2C#N)CCS3)c(OC)c1 | inactive
COc1ccc(-c2n[nH]c(C)c2-c2ccccc2OC)c(O)c1 | inactive

Req: What is the recorded call for this compound in the test? CCCC(C(=O)n1nc(C)cc1C)C(NS(=O)(=O)c1ccc(C)cc1)c1ccccc1 (configuration not stated)
Resp: inactive

Req: What is the recorded call for this compound in the test? Cc1ccc(NC(=O)C(C)OC(=O)Cc2c[nH]c3ccccc23)cc1S(=O)(=O)N1CCOCC1 (configuration not stated)
Resp: inactive

----------
assay notes: forskolin-stimulated cAMP inhibition in U2OS – cell-based, TR-FRET, triplicate, counter-screen for MC4R biased antagonist project (AID 602193);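 also: signal is single emission at 671 nm which falls as cellular cAMP rises; 0% = forskolin-stimulated wells and 100% = buffer without forskolin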
applied conditions: parental U2OS, LANCE TR-FRET, at 6.5 µM
The whole screen tested about 1,600 compounds, of which about 410 (26%) were called active.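 The calls were made as follows: active = mean inhibition over triplicates above the low-control well mean plus 3 SD, set per campaign (cut at about 13% in these data); inactive = the rest.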 Only a sample is shown.
I would appreciate it if you answered using one of these outcomes: active, inactive

Here's what some known entries look like.
COc1ccc(-n2nc(C(=O)Nc3cc(OC)c(OC)c(OC)c3)c3ccccc3c2=O)c(OC)c1 | inactive
Cc1ccccc1-c1n[nH]c(=S)n1/N=C/c1ccc(-c2ccccc2Br)o1 | inactive
CC(NS(=O)(=O)c1ccc(Br)cc1)C(=O)NCC1CCCO1 (stereo not given) | inactive
N#Cc1c(-c2cccs2)nc(SCC(=O)c2ccc(Br)cc2)[nH]c1=O | inactive
O=C(Nc1ccc(F)c([N+](=O)[O-])c1)C1CC(=O)N(Cc2ccccc2)C1 (stereo not given) | inactive

Req: What is the recorded call for this compound in the test? COc1ccc(C(C[N+](=O)[O-])n2nc(C)cc2C)cc1 (stereo not given)
Resp: active

Req: What is the recorded call for this compound in the test? Cc1ccc(C(C(=O)NCC2CCCO2)N(C(=O)c2snc(C(N)=O)c2N)c2ccc(C(C)C)cc2)o1 (stereo not given)
Resp: inactive

Req: What is the recorded call for this compound in the test? CCOC(=O)c1c(NC(=O)CCl)sc(C(=O)N(CC)CC)c1C
Resp: active

----------
assay notes: forskolin-stimulated cAMP inhibition in U2OS – cell-based, TR-FRET, triplicate, counter-screen for MC4R biased antagonist project (AID 602193);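 also: signal is single emission at 671 nm which falls as cellular cAMP rises; 0% = forskolin-stimulated wells and 100% = buffer without forskolin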
applied conditions: parental U2OS, LANCE TR-FRET, at 6.5 µM, active compounds read high
Screen size: about 1,600 compounds; about 410 (26%) were called active. These entries were drawn from the full list.
For each entry below, report its inhibition value.
Give bare numbers, in %.

COc1ccc(CCNC(=O)COC(=O)c2cnc(Cl)c(Cl)c2)cc1 | 17.2
CC(C)Oc1ccc(/C=C(\NC(=O)/C=C/c2ccco2)C(=O)NCCc2nc3ccccc3[nH]2)cc1 | 2.02
Cc1c(Cl)cccc1NC(=O)[C@@]1(CC(=O)O)CC(/C=C/c2ccccc2)=NO1 | 0.29
Cc1ccc(S(=O)(=O)N(C)CC(=O)OCC(=O)Nc2ccccc2)cc1 | 14.4
Cc1ccc(OCC(=O)Nc2ccc(NC(=O)c3cccs3)cc2)c(C)c1 | -2.94

# per-item lookup of inhibition; items listed below
1. O=C1/C(=C\c2ccc([N+](=O)[O-])cc2)CS(=O)(=O)C/C1=C/c1ccc([N+](=O)[O-])cc1
2. Cc1nnc(N/N=C/C2CC=CCC2)[nH]c1=O (configuration not stated)

Resp:
1. 26.1
2. -2.01

# per-item lookup of inhibition; items listed below
1. Cc1ccc(NC(=O)COC(=O)CNC(=O)c2ccc(Cl)cc2Cl)cc1S(=O)(=O)N1CCOCC1
2. O=C(NCC1CCN(Cc2ccccc2Cl)CC1)Nc1cccc(Cl)c1
3. Cc1ccc(NC(=O)c2c(NC(=O)CCC(=O)O)sc3c2CCCCC3)cc1
4. CC1(C)C(c2cccs2)=[N+]([O-])C2(CCCCC2=O)N1O (configuration not stated)
5. C#Cc1cc(N2CCN(C(=O)c3ccoc3)CC2)n2nc(-c3cccc(Cl)c3)cc2n1
6. Cc1ccc(S(=O)(=O)CCC(=O)OCC(=O)N(C)Cc2ccccc2)cc1
7. O=C(Nc1nnc(Cc2ccc(Cl)cc2)s1)c1cccnc1
8. C=Cn1c(C(=O)O)ccc1-c1ccc(OC)cc1

Resp:
1. 7.9
2. -1.82
3. 3.65
4. -3.22
5. 6.98
6. 1.96
7. -0.09
8. -3.83

# per-item lookup of inhibition; items listed below
1. Cc1ccc(NS(=O)(=O)c2ccc(C)c(NC(=O)COc3ccc4ccccc4c3)c2)c(C)c1
2. Cc1nc2ccccc2c(=O)n1NC(=O)c1ccc(Cl)c([N+](=O)[O-])c1
3. CCCCOC(=O)CNc1nnc(SCC(=O)OCC)[nH]c1=O
4. COc1ccc(/C=N/OCC(=O)N(Cc2ccccc2)c2ccccc2C(=O)O)cc1
5. O=C(Nc1ccccc1Cl)/C(Cl)=C(\Cl)S(=O)c1ccccc1 (configuration not stated)
6. CCN(CC(=O)NCCCN1CCOCC1)S(=O)(=O)c1cc(Cl)ccc1Cl
7. O=C(OCC(=O)N1CCCCCC1)c1cnc(Cl)c(Cl)c1

Resp:
2.54
18.5
34.4
-3.38
-0.54
-1.05
21.2
